# procedure-details: Chemical stability in aqueous solution (half-life)
# Format: physicochemical
# assay-context: 37°C, 10^-4 M, pH 7.4, aqueous solution; read-out: Half-life (T 1/2) (converted)
Structures can show the parent of a compound that is named as a salt.
Examples of compounds with documented half-life at 100 µM follow.
Answer format: numeric, h implied, no suffix.

Solved cases (4 shown):
{"compound": "C[C@@H](O)[C@H]1C(=O)N2C(C(=O)O)=C(SCCNC(=N)N)[C@H](CCNC(=N)N)[C@H]12 [Example 135, acetic acid salt]", "recorded-number": 37}
{"compound": "C[C@@H](O)[C@H]1C(=O)N2C(C(=O)O)=C(SCCC#N)[C@H](CCCN)[C@H]12", "recorded-number": 70}
{"compound": "C[C@@H](O)[C@H]1C(=O)N2C(C(=O)O)=C(SCCC#N)[C@H](CCN(C)CCC#N)[C@H]12", "recorded-number": 21}
{"compound": "C[C@@H](O)[C@H]1C(=O)N2C(C(=O)O)=C(SCCC#N)[C@H](CCN3CCOCC3)[C@H]12", "recorded-number": 33.5}

*Q* Return reported half-life at 100 µM; argument: C[C@@H](O)[C@H]1C(=O)N2C(C(=O)O)=C(SCc3cccnc3)[C@H](CCN)[C@H]12
*A* 3.5

*Q* Continue with C[C@@H](O)[C@H]1C(=O)N2C(C(=O)O)=C(SCCCC#N)[C@H](CCN)[C@H]12
*A* 2.5

*Q* Continue with C[C@@H](O)[C@H]1C(=O)N2C(C(=O)O)=C(SCCC#N)[C@H](CCN)[C@H]12
*A* 3.8

*Q* Continue with C[C@@H](O)[C@H]1C(=O)N2C(C(=O)O)=C(SCCO)[C@H](CCCNC=N)[C@H]12
*A* 76

###

# System: Escherichia coli, A15119
# procedure-details: In vitro antibacterial activity (MIC), serial 2-fold dilution
# Format: cell-based
# assay-context: Escherichia coli A15119; Mueller-Hinton; 37°C, 17 h; read-out: Antibacterial Activity MIC E. coli
Where a name gives a salt, the structure may show the parent alone.
Examples of compounds with documented MIC follow.
Answer format reminder: number followed by unit.

Solved cases (3 shown):
{"compound": "C[C@@H](O)[C@H]1C(=O)N2C(C(=O)O)=C(SCC(=N)N(C)C)[C@H](CCCN)[C@H]12 [Example 130, acetic acid salt]", "assay-target": "Escherichia coli, A15119", "MIC": "0.13 µg/mL"}
{"compound": "C[C@@H](O)[C@H]1C(=O)N2C(C(=O)O)=C(SCCCC#N)[C@H](CCN)[C@H]12", "assay-target": "Escherichia coli, A15119", "MIC": "0.03 µg/mL"}
{"compound": "C[C@@H](O)[C@H]1C(=O)N2C(C(=O)O)=C(SCCO)[C@H](CCCNC=N)[C@H]12", "assay-target": "Escherichia coli, A15119", "MIC": "0.004 µg/mL"}

*Q* Return reported MIC; argument: C[C@@H](O)[C@H]1C(=O)N2C(C(=O)O)=C(SCCO)[C@H](CCCCN(C)C)[C@H]12
*A* 0.016 µg/mL

###

# procedure-details: Chemical stability in aqueous solution (half-life)
# Type: physicochemical
# assay-context: 37°C, 10^-4 M, pH 7.4, aqueous solution; read-out: Half-life (T 1/2) (converted)
observable: half-life at 100 µM (h)
Answer format: numeric, h implied, no suffix.

{"query-smiles": "CNCCC[C@H]1C(SCCC#N)=C(C(=O)O)N2C(=O)[C@H]([C@@H](C)O)[C@@H]12", "units-of-measure": "h", "half-life at 100 µM": 79}
{"query-smiles": "C[C@@H](O)[C@H]1C(=O)N2C(C(=O)O)=C(SCc3cn(C)nn3)[C@H](CCCNC=N)[C@H]12", "units-of-measure": "h", "half-life at 100 µM": 88}
{"query-smiles": "C[C@@H](O)[C@H]1C(=O)N2C(C(=O)O)=C(SCCC#N)[C@H](CCNC(=N)N)[C@H]12", "units-of-measure": "h", "half-life at 100 µM": 37}
{"query-smiles": "CSC1=C(C(=O)O)N2C(=O)[C@H]([C@@H](C)O)[C@H]2[C@H]1CCCCN", "units-of-measure": "h", "half-life at 100 µM": 247}

Proceed to the following item.
*Q* Return reported half-life at 100 µM; argument: C[C@@H](O)[C@H]1C(=O)N2C(C(=O)O)=C(SCCC#N)[C@H](CCN3CCCC3)[C@H]12
*A* 18
